B1: SPSB4 (parent)
chain: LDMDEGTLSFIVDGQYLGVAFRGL

variants of: B1; assay: protein stability index of a GFP-peptide fusion (GPS, HEK-293T) (PSI 1-6); higher = more stable; details: c terminus: a fixed tail appended;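 also: lentivirally expressed fusions sorted by FACS into six bins by GFP to DsRed ratio, PSI derived from sequencing read proportions per bin multiplied by bin number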
READOUT: protein stability index
// print number alone

LDMDGGTLSFIVDGQYLGVAFRGL [E5G] ... 1.85

Entry LDMDEGTLSFIVDGQFLGVAFRGL [Y16F] — recorded protein stability index = 3.17

Entry LDMDEGTLSFIVDGQYLGVAFRHL [G23H] — recorded protein stability index = 2.5

Entry LDMDEGTLSFIVDGTYLGVAFRGL [Q15T] — recorded protein stability index = 3.63

Entry LDMDEGTLSFIVDGQYLGVAARGL [F21A] — recorded protein stability index = 1.7

Entry LDMDEGTLSFIVCGQYLGVAFRGL [D13C] — recorded protein stability index = 3.49

Entry LDMDEGTLSFIVDGMYLGVAFRGL [Q15M] — recorded protein stability index = 1.98

Entry LDMDEGTLSFIVDGQYLGVAFRGF [L24F] — recorded protein stability index = 3.21
